experimental system: T1, histidine-tagged human SIRPA v1 (Novoprotein) (human, UniProt P78324 31-370, limits assumed)
T1 construct: bought, soluble; also called huSIRPA; soluble huSIRPA; not shown: histidine tag
T1 sequence (P78324 31-370 limits assumed): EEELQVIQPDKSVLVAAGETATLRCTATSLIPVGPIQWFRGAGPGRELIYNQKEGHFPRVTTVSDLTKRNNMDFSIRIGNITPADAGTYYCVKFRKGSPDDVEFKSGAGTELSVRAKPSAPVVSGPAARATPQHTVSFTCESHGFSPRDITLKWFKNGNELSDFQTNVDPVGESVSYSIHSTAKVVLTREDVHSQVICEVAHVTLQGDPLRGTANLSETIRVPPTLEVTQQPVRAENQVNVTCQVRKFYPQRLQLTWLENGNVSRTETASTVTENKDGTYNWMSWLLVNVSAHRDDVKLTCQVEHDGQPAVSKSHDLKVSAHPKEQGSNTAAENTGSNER
test details: BLI (Octet), antibody on anti-human IgG Fc sensor, His-huSIRPA in solution, single-curve 1:1 fit
Can you tell me kon for the items I'm about to list?
One number for each entry, in M⁻¹ s⁻¹.

Value of measured kon for the entry 3F9-23 (antibody, human IgG1, V domains shown, also called mAb 3F9-23) VH: EVQLLESGGGLVQPGGSLRLSCAASGFTFSSYAMSWVRQAPGKGLEWVATISEYGGSYTYYAESVKGRFTISRDNSKNTLYLQMNSLRAEDTAVYYCARPPYDDYYGGFQYWGQGTLVTVSS VL: DIQLTQSPSSLSASVGDRVTITCRASKSVSSGGYSYMHWYQQKPGKAPKLLIYLASNLESGVPSRFSGSGSGTDFTLTISSVQPEDFATYYCQHNRELPATFGQGTKLEIK : 169000

Value of measured kon for the entry 3F9-5 (antibody, human IgG1, V domains shown, also called mAb 3F9-5) VH: EVQLLESGGGLVQPGGSLRLSCAASGFTFSSYAMSWVRQAPGKGLEWVATISEYGGSYTYYAESVKGRFTISRDNSKNTLYLQMNSLRAEDTAVYYCARPPYDDYYGGFAYWGQGTLVTVSS VL: DIQLTQSPSSLSASVGDRVTITCRASKSVSSGGYSYMHWYQQKPGKAPKLLIYLASNLESGVPSRFSGSGSGTDFTLTISSVQPEDFATYYCQHNRELPTTFGQGTKLEIK : 93600

New cases:
Value of measured kon for the entry 3F9-2 (antibody, human IgG1, V domains shown, also called mAb 3F9-2) VH: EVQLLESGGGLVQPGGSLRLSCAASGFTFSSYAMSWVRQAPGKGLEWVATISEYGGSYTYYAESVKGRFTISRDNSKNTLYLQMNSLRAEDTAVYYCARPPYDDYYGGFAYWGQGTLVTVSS VL: DIQLTQSPSSLSASVGDRVTITCRASKSVSSGGYSYMHWYQQKPGKAPKLLIYLASNLESGVPSRFSGSGSGTDFTLTISSVQPEDFATYYCQHNRELPCTFGQGTKLEIK : 108000
